test system: MS2 coat protein; test: apparent KD of MS2 coat protein, switch ON state; designed switch direction (-1 OFF switch, 1 ON switch): -1; higher = weaker reporter binding; details: FMN input: 0 or 200 uM; Eterna round: R93 (includes R88 designs)
Note that class boundaries on apparent KD of MS2 coat protein are zone 1 (below 30 nM), zone 2 (30 nM to below 40 nM), zone 3 (40 nM or more)

Completed entries (count: 3):
INSERT INTO results (sequence_input, qualitative_label) VALUES
  ('AGCUAGACAGGAUAUACGUAAAUGUCGAAAGACGUAUAGGGACAUGAGGAUCACCCAUGUAGAAGGGUCUAGCA [Diamond 100]', 'zone 1'),
  ('AAAUGUUGAGGAUAUACAUGAGGAUCACCCAUGUGUAAAAAUAAAUACACAAAAGAAAGUAGAAGGCAACAAAA [Ex 3 May 11]', 'zone 1'),
  ('CAGUACUGAGGAUAUACAUGAGGAUCACCCAUGUGAUCAAGCUACGAAAGUAGCACAUGUAGAAGGCAGUACUG [Ex3: 808]', 'zone 1');

Which class is correct for the following sequence? AAUAACAGAGGAUAUGCGAAAAUAAGCGGAAACGCAAAGGGACAUGAGGAUCACCCAUGUAGAAGGCUGGAUAA [Tetraloop... 61% 1] zone 2

Which class is correct for the following sequence? AAAGGAGUAGGAUAUACAUGAGGAUCACCCAUGUAAAAAACAUAAUAAAAGAACUUAUGUAGAAGGGCUCCAAA [69%, Moding Meechl, 11] zone 2

Which class is correct for the following sequence? AAGAAUGAAGGAUAUACAUGAGGAUCACCCAUGUAAAAGAAAGAGGGAAAAGAGAAAAGUAGAAGGUCAAAGAA [Ptolemy XI Alexander II] zone 1

Which class is correct for the following sequence? GGUUGGCGAGGAUAUACAUGAGGAUCACCCAUGUGAGAGAAAAAAGUGAGAAUGAAAAGUAGAAGGCGCUGACG [salish99-ex3-35] zone 3

Which class is correct for the following sequence? CCUAUGUCAGGAUAUCAGUAGUAAAAAAAAAAAAUUACUACUGAGAAGGGACAUGAGGAUCACCCAUGUUCAAA [EX4 313: Super Stable 13] zone 3

Which class is correct for the following sequence? AAAAAGGCAGGAUAUACGAAACAGGGAAACCUGAAAGGGAAACAUGAGGAUCACCCAUGUAGAAGGGCCAAGAA [Clint Eastwood 64% 2] zone 3

----------
system: MS2 coat protein; assay: apparent KD of MS2 coat protein; designed switch direction (-1 OFF switch, 1 ON switch): -1; higher = weaker reporter binding; details: input ligand: microRNA oligo, concentration not stated
# if value of apparent KD of MS2 coat protein reaches 20 nM, tag YES; if it stays below, tag NO

INSERT INTO measurements (sequence_input, qualitative_label) VALUES
  ('GGAUAAAAGACAGGAUAUACGCACCACUAACGAGUAGAAGGGUCACAUGAGGAUCACCCAUGUGAGUUCUCAAUAAGAAACACG [Prohibition 67 - Jieux - Exclusion NG 1] (Eterna round: R96, puzzle: Exclusion NG 1)', 'NO'),
  ('UUUGUAUAUGAAGGAUAUACUUAACAUGAGGAUCACCCAUGUGGUGUUGUGAGUGAGUGAGUUUAGUAGAAGGUCAAUGAUUUU [JMF''s solution 71] (Eterna round: R96, puzzle: Exclusion NG 2)', 'YES'),
  ('GCAGCAAACUCUAUUAAAACCACAUGAGGAUCACCCAUGUCUCAGGAUAUGGUCUGGAUUACAGGCCAGAAGGGAGAAAGCUGC [Eli exng3 - 054] (Eterna round: R96, puzzle: Exclusion NG 3)', 'NO');

Assess whether reported apparent KD of MS2 coat protein for ACCAAAGCAGUAGGAUAUACGCACAUGAGGAUCACCCAUGUAGCACGUCUCCAGACACCGAAUGCGUAGAAGGACUGCGCGCAA [Eternabot solution 3] (Eterna round: R96, puzzle: Exclusion NG 2) sits at 20 nM or higher. NO

Assess whether reported apparent KD of MS2 coat protein for UAUAUAUAGUAAGGAUAUGUAUUAAUUAUAUAAACAGAAGGUACUGACAUGAGGAUCACCCAUGUUUUAGUGUGGGCAUGUAGA [JMF's solution 80] (Eterna round: R96, puzzle: Exclusion NG 1) sits at 20 nM or higher. YES

Entry source: the supplement of paper PMC9170038
